Hello, the source for this data is patent US20170355774A1, in case you need it.

Target: T1, hGITR.mmh (human)
T1 construct: soluble monomeric construct; also called human (h) GITR.mmh; monomeric human GITR
T1 chain: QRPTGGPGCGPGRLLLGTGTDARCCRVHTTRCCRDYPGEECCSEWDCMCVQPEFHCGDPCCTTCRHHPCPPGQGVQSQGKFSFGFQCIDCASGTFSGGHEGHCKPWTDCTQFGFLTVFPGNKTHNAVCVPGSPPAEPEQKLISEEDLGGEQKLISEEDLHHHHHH
Assay: SPR 37C, mAb capture
Below, each of the binders is paired with its reported t½ value.
Your answer is read as min, so omit the unit and give the number.

Exam item: Give its t½ value. Item: H4H14508P (antibody, human IgG4, V domains shown, human IgG4 (H4H)) VH: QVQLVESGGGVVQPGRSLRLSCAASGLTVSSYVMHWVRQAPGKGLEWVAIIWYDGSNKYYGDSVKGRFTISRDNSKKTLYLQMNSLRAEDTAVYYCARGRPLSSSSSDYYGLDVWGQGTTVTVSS VL: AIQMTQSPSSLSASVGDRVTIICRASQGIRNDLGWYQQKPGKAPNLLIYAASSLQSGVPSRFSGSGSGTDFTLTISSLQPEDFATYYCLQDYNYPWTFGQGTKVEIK
Marked response: 1.2

Exam item: Give its t½ value. Item: H1H14520P (antibody, human IgG1, V domains shown, human IgG1 (H1H)) VH: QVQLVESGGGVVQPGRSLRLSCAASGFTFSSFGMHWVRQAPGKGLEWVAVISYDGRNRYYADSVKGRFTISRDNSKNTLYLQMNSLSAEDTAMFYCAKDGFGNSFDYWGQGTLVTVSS VL: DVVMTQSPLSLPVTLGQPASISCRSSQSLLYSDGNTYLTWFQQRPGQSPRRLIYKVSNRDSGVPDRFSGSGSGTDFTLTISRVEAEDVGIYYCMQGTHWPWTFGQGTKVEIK
Marked response: 0.7
